Listing of recorded melting point by entry.
METRIC NAME: melting point

- COMPOUND: "NC(=O)CNc1ccc(C(=O)O)cc1"
  METRIC NAME: "melting point"
  VALUE MEASURED: "249 to 251 °C"
- COMPOUND: "O=C(O)c1cc(S(=O)(=O)N2CCOCC2)ccc1I"
  METRIC NAME: "melting point"
  VALUE MEASURED: "183 to 185 °C"
- COMPOUND: "NC(=O)CCCl"
  METRIC NAME: "melting point"
  VALUE MEASURED: "142 to 144 °C"
- COMPOUND: "O=C(CO)N1CCc2ccccc2C1"
  METRIC NAME: "melting point"
  VALUE MEASURED: "99 to 101 °C"
- COMPOUND: "Nc1nc(-c2cc(Br)cs2)cs1"
  METRIC NAME: "melting point"
  VALUE MEASURED: "149 to 151 °C"
- COMPOUND: "O=[N+]([O-])c1ccc(Cl)c(CCl)c1"
  METRIC NAME: "melting point"
  VALUE MEASURED: "61 to 63 °C"
- COMPOUND: "O=C(Nc1ccc(O)c(C(=O)O)c1)c1cc(Cl)cc(Cl)c1"
  METRIC NAME: "melting point"
  VALUE MEASURED: "288 to 290 °C"
- COMPOUND: "OCc1nnc(-c2ccccc2)n1-c1ccccc1"
  METRIC NAME: "melting point"
  VALUE MEASURED: "199 to 201 °C"
- COMPOUND: "COc1ccc(-c2n[nH]c(=O)c3ccccc23)cc1"
  METRIC NAME: "melting point"
  VALUE MEASURED: "238 to 240 °C"
- COMPOUND: "CC(Sc1ccnc2cc(Cl)ccc12)C(=O)O (stereo not drawn)"
  METRIC NAME: "melting point"
  VALUE MEASURED: "201 to 203 °C"
- COMPOUND: "NCCCN1CCN(c2ncccn2)CC1"
  METRIC NAME: "melting point"
  VALUE MEASURED: "72 to 74 °C"
- COMPOUND: "O=C(O)c1cc(C2CC2)nc2onc(-c3ccco3)c12"
  METRIC NAME: "melting point"
  VALUE MEASURED: "211 to 213 °C"
- COMPOUND: "Cc1ccc(-c2nn(-c3ccccc3)cc2C=O)o1"
  METRIC NAME: "melting point"
  VALUE MEASURED: "112 to 114 °C"

----------
Listing of recorded melting point by entry.

- COMPOUND: "O=CC1=C(Sc2ccccc2)CCCC1"
  melting point: "42 to 44 °C"
- COMPOUND: "N#Cc1cc(F)ccc1N"
  melting point: "92 to 96 °C"
- COMPOUND: "O=Cc1nccn1CC(F)(F)F"
  melting point: "50 to 52 °C"
- COMPOUND: "Sc1nc(-c2cc3ccccc3o2)no1"
  melting point: "152 to 154 °C"
- COMPOUND: "CC1=C(C)C(=O)NC1=O"
  melting point: "113 to 115 °C"
- COMPOUND: "CC(C)(C)C1CCC(c2cc(N)[nH]n2)CC1 (stereo not drawn)"
  melting point: "132 to 134 °C"
- COMPOUND: "O=C(O)C1CCCN(S(=O)(=O)c2cccs2)C1 (stereo not drawn)"
  melting point: "136 to 138 °C"
- COMPOUND: "CC(=O)c1ccc(S(=O)(=O)C(F)F)cc1"
  melting point: "92 to 94 °C"
- COMPOUND: "NC(Cn1ccccc1=O)=NO"
  melting point: "211 to 213 °C"
- COMPOUND: "CN(C)c1nc(-c2ccccc2)c(C=O)s1"
  melting point: "123 to 125 °C"
- COMPOUND: "O=C(O)c1cc2c(OC(F)(F)F)cccc2[nH]1"
  melting point: "189 to 191 °C"
- COMPOUND: "O=C(CCl)N1c2ccccc2CCc2ccccc21"
  melting point: "96 to 98 °C"
- COMPOUND: "COc1ccc(C(=O)NC(C(=O)O)C(C)C)cc1 (stereo not drawn)"
  melting point: "163 to 165 °C"
- COMPOUND: "CN1CCN(CCC(=O)NN)CC1"
  melting point: "87 to 89 °C"
- COMPOUND: "Cc1ccc(-n2nc(-c3ccccc3)cc2N)c(C)c1"
  melting point: "126 to 128 °C"
- COMPOUND: "O=c1oc2ccc([N+](=O)[O-])cc2n1CCCBr"
  melting point: "109 to 111 °C"
- COMPOUND: "COc1cccc(-c2cc(N)n(-c3ccccc3)n2)c1"
  melting point: "112 to 114 °C"
- COMPOUND: "O=C(O)c1cccc(OCc2cn3ccccc3n2)c1"
  melting point: "197 to 199 °C"
- COMPOUND: "Cc1nn(C)c(C)c1O"
  melting point: "186 to 188 °C"
- COMPOUND: "C=CC(=O)NCc1ccc(C(=O)O)cc1"
  melting point: "197 to 199 °C"
- COMPOUND: "CNc1ccc(C)nn1"
  melting point: "162 to 164 °C"
- COMPOUND: "Nc1c(F)cccc1C(=O)O"
  melting point: "182 to 186 °C"
- COMPOUND: "O=C(O)c1cccnc1SCc1ccc(Br)cc1"
  melting point: "236 to 238 °C"
- COMPOUND: "O=C1CNCCN1Cc1ccc(Cl)cc1"
  melting point: "83 to 85 °C"
- COMPOUND: "Cc1ccsc1C(=O)c1ccc(Cl)cc1F"
  melting point: "39 to 41 °C"
- COMPOUND: "Cc1cc(=O)oc2cc(OCC(=O)O)ccc12"
  melting point: "206 to 208 °C"
- COMPOUND: "O=c1c2cc(Cl)cc(Cl)c2nc2n1CCC2"
  melting point: "245 to 247 °C"
- COMPOUND: "Fc1ccc(-c2n[nH]cc2Br)cc1"
  melting point: "141 to 143 °C"
